System: PC-3 prostate
Test: NCI tumour cell line growth inhibition, 48 h; in the data active = GI50 below about 0.43 µM; inactive = the rest
Respond with a class label; see active, inactive

// known answers, use as guide
| molecule | cat |
| --- | --- |
| COc1ccc(-c2cc(=O)c3c(C)ccnc3[nH]2)cc1 | inactive |
| COc1cc2c(cc1OCCCCCOc1ccc(-c3nc4ccccc4s3)cc1)N=C[C@@H]1CCCN1C2=O | inactive |
| COc1ccc2c(c1[N+](=O)[O-])CC[C@@H]1[C@@H]2CC[C@]2(C)C(=O)CC[C@@H]12 | inactive |
| Oc1ccc(CCNc2nc3ccccc3c3[nH]c4ccccc4c23)cc1O | inactive |
| CN1CCN(c2ccc3nc(-c4[nH]ncc4Nc4ncnc5[nH]ccc45)[nH]c3c2)CC1 | active |

Fill in: this test's call for CCCCCCCCCCCC(c1ccccc1)[N+](C)(C)C (stereo not given) is ___
active

Fill in: this test's call for CCn1c(-c2nonc2N)nc2cnc(Oc3cccc(NC(=O)c4ccc(OCCN5CCOCC5)cc4)c3)cc21 is ___
inactive

Fill in: this test's call for COCCn1c(Nc2ccc(C(=O)NO)cc2)nc2ccccc21 is ___
inactive

Fill in: this test's call for CCCCCCCCCCCC1=NC(C)(C)CN1C(C)C is ___
inactive

Fill in: this test's call for COc1cc(-c2csc(NC(=O)Nc3ccc(Cl)cc3)n2)cc(OC)c1OC is ___
inactive

---

System: LOX IMVI melanoma
Test: NCI tumour cell line growth inhibition, 48 h
test.readout: TGI

Solved cases (3 shown):
| compound | TGI |
| --- | --- |
| Cc1ccccc1NC(=O)C(=O)C(C1OC(=O)c2ccccc21)[N+](=O)[O-] (centres undefined) | > 100 µM |
| CCN(CC)C1=Nc2ccccc2-n2ccnc2C1 | > 100 µM |
| CN(C(=O)Cc1cc(Cl)c(Cl)cc1NC(=O)CCCN)[C@H]1CCCC[C@@H]1N1CCCC1 | 39.3 µM |

Quick one: give measured TGI for O=C(Nc1ccc(Nc2ccc3c(c2)C(=O)c2ccccc2C3=O)c2c1C(=O)c1ccccc1C2=O)c1ccccc1
> 100 µM

Quick one: give measured TGI for O=C(O)C1CCCN1 (centres undefined)
> 100 µM

Quick one: give measured TGI for Clc1ccc(NCNC2Nc3ccccc3N2)cc1Cl
> 100 µM

Quick one: give measured TGI for COc1ccccc1C1C(C#N)=C(N)SC(N)=C1C#N
> 100 µM

Quick one: give measured TGI for C[C@]12C(=O)OC[C@H](c3ccccc3)N1C(=O)N(Cc1ccccc1)[C@@H]2CO
> 100 µM

Quick one: give measured TGI for O=C(O)CN(CCN(CC(=O)O)CC(=O)O)CCN(CC(=O)O)CC(=O)O
11.6 µM

---

Test system: CCRF-CEM leukemia
Assay: NCI tumour cell line growth inhibition, 48 h
// reported TGI per item
The response must be a number in µM with no trailing unit.

| molecule | TGI [µM] |
| --- | --- |
| CCCCCCc1cc2cc(C(=O)Nc3nc(C45CC6CC(CC(C6)C4)C5)cs3)c(=O)oc2cc1O | 50.5 |
| COC1C(OC(=O)/C=C/C=C/C=C/C=C/C(=O)O)CCC2(CO2)C1C1(C)OC1CC=C(C)C (centres undefined) | 78.1 |
| C[C@]12CC[C@H]3[C@@H](CC=C4C[C@@H](N5CCCC5)CC[C@@]43C)[C@@H]1C/C(=C\c1ccc([N+](=O)[O-])cc1)[C@@H]2O | 14.1 |
| CN(C)C(=C1C(Br)=C(Br)C(Br)=C1Br)N(C)C | 95.3 |

From here, focus on the item given below.
Quick one: give measured TGI for C=CC(=O)N1CCN([C@@H](CC2CC2)c2ccc([C@H](C)Nc3ncc4c(n3)N(CC)C(=O)OC4)cc2)CC1
25.2
